Origin of the recorded values: paper PMC8839448

Entries below carry reported MIC on Aspergillus niger EM77 (KF774181).
readout: MIC (µg/mL)

| smiles_repr | MIC (µg/mL) |
| --- | --- |
| Cc1ccc(-c2cc(-c3ccccc3)nc3sc4c(c23)NC2(CCCC2)NC4=O)cc1 | 8 |

(P) Cc1ccc(-c2cc(-c3ccccc3)nc3sc4c(Cl)nc(Cl)nc4c23)cc1
(Q) Cc1ccc(-c2cc(-c3ccccc3)nc3sc4c(c23)NC2(CCCCC2)NC4=S)cc1
Lookup: Would you mind telling me which has the lower recorded MIC between P and Q ? Answer format: the label of the selected item.
Found: P
(P: 16 µg/mL, Q: 64 µg/mL)
